Every entry's value here was drawn from ChEMBL document CHEMBL4028872.

biological target: Sodium- and chloride-dependent betaine transporter (Homo sapiens, UniProt P48065, S353A); assay: Inhibition of human BGT1 S353A mutant expressed in tsA201 cells assessed as reduction in [3H]GABA uptake after 3 mins by scintillation counting method
Sequence (P48065 whole entry S353A): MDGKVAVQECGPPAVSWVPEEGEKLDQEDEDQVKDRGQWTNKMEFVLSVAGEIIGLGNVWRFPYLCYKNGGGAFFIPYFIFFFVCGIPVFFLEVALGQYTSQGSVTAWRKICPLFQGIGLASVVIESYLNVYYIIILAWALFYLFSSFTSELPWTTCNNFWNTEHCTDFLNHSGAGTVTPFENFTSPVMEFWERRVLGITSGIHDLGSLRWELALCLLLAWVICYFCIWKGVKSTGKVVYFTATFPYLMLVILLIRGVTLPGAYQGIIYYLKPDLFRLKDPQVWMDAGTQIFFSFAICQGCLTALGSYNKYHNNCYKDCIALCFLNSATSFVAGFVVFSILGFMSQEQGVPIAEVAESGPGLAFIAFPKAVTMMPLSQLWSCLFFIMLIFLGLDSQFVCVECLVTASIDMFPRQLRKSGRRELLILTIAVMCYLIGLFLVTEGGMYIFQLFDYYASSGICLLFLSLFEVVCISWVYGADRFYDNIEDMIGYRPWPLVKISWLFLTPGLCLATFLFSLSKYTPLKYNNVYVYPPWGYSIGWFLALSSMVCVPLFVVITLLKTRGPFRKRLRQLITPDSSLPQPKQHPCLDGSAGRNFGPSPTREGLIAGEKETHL
MEASURE_NAME: IC50
# answer = value followed by unit

Query string: Identify measured IC50 associated with O=C(NC1CCN(Cc2ccccc2)CC1)c1ccc(Cl)cc1Cl
Result string: 17 µM

====

target: Sodium- and chloride-dependent betaine transporter (Homo sapiens, UniProt P48065, S381A); assay: Inhibition of human BGT1 S381A mutant expressed in tsA201 cells assessed as reduction in [3H]GABA uptake after 3 mins by scintillation counting method
MEASURE_NAME: pIC50
Note on units: pIC50 is unitless, being -log10 of a concentration expressed in mol/L.

Query string: Give pIC50; test system Sodium- and chloride-dependent betaine transporter (Homo sapiens, UniProt P48065, S381A); molecule O=C(NC1CCN(Cc2ccccc2)CC1)c1ccc(Cl)cc1Cl
Result string: 4.89

====

target: Sodium- and chloride-dependent betaine transporter (Homo sapiens, UniProt P48065, Q346Y); experiment: Inhibition of human BGT1 Q346Y mutant expressed in tsA201 cells assessed as reduction in [3H]GABA uptake after 3 mins by scintillation counting method
MEASURE_NAME: pIC50
Note on units: pIC50 is unitless, being -log10 of a concentration expressed in mol/L.

Query string: Give pIC50; test system Sodium- and chloride-dependent betaine transporter (Homo sapiens, UniProt P48065, Q346Y); compound O=C(NC1CCN(Cc2ccccc2)CC1)c1ccc(Cl)cc1Cl
Result string: 4.85

====

Catalogue of pIC50 readings, one per entry.
biological target: Sodium- and chloride-dependent GABA transporter 1 (Homo sapiens); format: cell-based; settings: read-out: IC50
Sequence (P30531 whole entry): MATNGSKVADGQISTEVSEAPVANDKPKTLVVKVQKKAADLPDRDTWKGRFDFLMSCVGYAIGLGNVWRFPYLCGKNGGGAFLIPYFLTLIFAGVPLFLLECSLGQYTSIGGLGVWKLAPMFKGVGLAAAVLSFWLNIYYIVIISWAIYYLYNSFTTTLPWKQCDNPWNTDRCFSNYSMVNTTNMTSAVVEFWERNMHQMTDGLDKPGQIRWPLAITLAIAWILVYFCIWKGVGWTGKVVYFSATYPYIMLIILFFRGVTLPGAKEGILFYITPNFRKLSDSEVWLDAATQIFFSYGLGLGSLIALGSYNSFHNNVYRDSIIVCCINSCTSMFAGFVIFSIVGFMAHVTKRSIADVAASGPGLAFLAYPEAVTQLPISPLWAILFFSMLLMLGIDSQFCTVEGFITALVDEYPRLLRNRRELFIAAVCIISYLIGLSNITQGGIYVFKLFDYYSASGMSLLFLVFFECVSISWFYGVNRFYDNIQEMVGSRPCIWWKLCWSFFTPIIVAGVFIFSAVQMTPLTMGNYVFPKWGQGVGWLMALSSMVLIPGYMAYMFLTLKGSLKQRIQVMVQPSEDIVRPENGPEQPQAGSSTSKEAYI
pIC50: −log10 of the molar value.

Known results for compounds:
Query string: Identify measured pIC50 associated with O=C(NC1CCN(Cc2ccccc2)CC1)c1ccccc1
Result string: < 3.00

Query string: Identify measured pIC50 associated with O=C(OC1CCN(Cc2ccccc2)CC1)c1ccccc1
Result string: < 3.00

Query string: Identify measured pIC50 associated with C#CCN1CCC(NC(=O)c2ccc(Cl)cc2Cl)CC1
Result string: < 3.00

More entries:
Query string: Identify measured pIC50 associated with CN1CCC(NC(=O)c2ccc(Cl)cc2Cl)CC1
Result string: < 3.00

Query string: Identify measured pIC50 associated with O=C(O)CN1CCC(NC(=O)c2ccc(Cl)cc2Cl)CC1
Result string: < 3.00

Query string: Identify measured pIC50 associated with O=C(NC1CCN(Cc2ccncc2)CC1)c1ccc(Cl)cc1Cl
Result string: < 3.00

Query string: Identify measured pIC50 associated with N#Cc1ccccc1CN1CCC(NC(=O)c2ccc(Cl)cc2Cl)CC1
Result string: < 4.30

Query string: Identify measured pIC50 associated with O=C(NC1CCN(Cc2ccccc2)CC1)c1ccc(F)cc1
Result string: < 3.52

Query string: Identify measured pIC50 associated with COC(=O)c1ccc(CN2CCC(NC(=O)c3ccc(Cl)cc3Cl)CC2)cc1
Result string: < 4.00

====

biological target: Sodium- and chloride-dependent betaine transporter (Homo sapiens, UniProt P48065, V336A); assay: Inhibition of human BGT1 V336A mutant expressed in tsA201 cells assessed as reduction in [3H]GABA uptake after 3 mins by scintillation counting method; assay type: cell-based; settings: read-out: IC50
Sequence (P48065 whole entry V336A): as the sequence (P48065 whole entry S353A) above, with V336A, A353S counted along it
MEASURE_NAME: pIC50
Note on units: pIC50 is unitless, being -log10 of a concentration expressed in mol/L.

Query string: Identify measured pIC50 associated with O=C(NC1CCN(Cc2ccccc2)CC1)c1ccc(Cl)cc1Cl
Result string: 5.70

====

Catalogue of pIC50 readings, one per entry.
target: Sodium- and chloride-dependent GABA transporter 1 (Homo sapiens); assay type: cell-based; conditions: read-out: IC50
pIC50: −log10 of the molar value.

Known results for molecules:
Query string: Identify measured pIC50 associated with CCN1CCC(NC(=O)c2ccc(Cl)cc2Cl)CC1
Result string: < 3.00

Query string: Identify measured pIC50 associated with CCOP(=O)(CCCN1CCC(NC(=O)c2ccc(Cl)cc2Cl)CC1)OCC
Result string: < 3.00

Query string: Identify measured pIC50 associated with N#Cc1ccc(CN2CCC(NC(=O)c3ccc(Cl)cc3Cl)CC2)cc1
Result string: < 4.30

Query string: Identify measured pIC50 associated with O=C(NC1CCN(Cc2ccccn2)CC1)c1ccc(Cl)cc1Cl
Result string: < 3.00

Query string: Identify measured pIC50 associated with O=C(NC1CCN(Cc2ccc3ccccc3n2)CC1)c1ccc(Cl)cc1Cl
Result string: < 4.30

Query string: Identify measured pIC50 associated with COc1cccc(C(=O)NC2CCN(Cc3ccccc3)CC2)c1OC
Result string: < 3.30

Query string: Identify measured pIC50 associated with O=C(NC1CCN(C/C=C/c2ccccc2)CC1)c1ccc(Cl)cc1Cl
Result string: < 4.00

Query string: Identify measured pIC50 associated with CCOc1ccccc1C(=O)NC1CCN(Cc2ccccc2)CC1
Result string: < 3.30

Query string: Identify measured pIC50 associated with CC(C)(C)OC(=O)CN1CCC(NC(=O)c2ccc(Cl)cc2Cl)CC1
Result string: < 3.00

Query string: Identify measured pIC50 associated with O=C(OC1CCN(Cc2ccccc2)CC1)c1ccc(Cl)cc1Cl
Result string: < 3.00

More entries:
Query string: Identify measured pIC50 associated with CC(C)C(=O)NC1CCN(Cc2ccccc2)CC1
Result string: < 3.00

Query string: Identify measured pIC50 associated with O=C(NC1CCN(Cc2ccccc2[N+](=O)[O-])CC1)c1ccc(Cl)cc1Cl
Result string: < 4.00

Query string: Identify measured pIC50 associated with Clc1ccc(CNC2CCN(Cc3ccccc3)CC2)c(Cl)c1
Result string: < 3.40

Query string: Identify measured pIC50 associated with O=C(NC1CCN(Cc2ccccc2)CC1)c1ccc(Cl)nc1Cl
Result string: < 3.00

Query string: Identify measured pIC50 associated with O=C(NC1CCN(Cc2ccccc2)CC1)c1cccc(C(F)(F)F)c1
Result string: < 3.30

Query string: Identify measured pIC50 associated with CCCN1CCC(NC(=O)c2ccc(Cl)cc2Cl)CC1
Result string: < 3.00

Query string: Identify measured pIC50 associated with O=C(NC1CCN(Cc2cccnc2)CC1)c1ccc(Cl)cc1Cl
Result string: < 3.00

Query string: Identify measured pIC50 associated with O=C(NC1CCN(Cc2ccc3ccccc3c2)CC1)c1ccc(Cl)cc1Cl
Result string: < 4.30

Query string: Identify measured pIC50 associated with O=C(NC1CCN(Cc2ccc(I)cc2)CC1)c1ccc(Cl)cc1Cl
Result string: < 4.00

Query string: Identify measured pIC50 associated with O=C(NC1CCNCC1)c1ccc(Cl)cc1Cl
Result string: < 3.00

Query string: Identify measured pIC50 associated with O=C(CN1CCC(NC(=O)c2ccc(Cl)cc2Cl)CC1)c1ccccc1
Result string: < 4.00

Query string: Identify measured pIC50 associated with O=C(NC1CCN(Cc2ccc([N+](=O)[O-])cc2)CC1)c1ccc(Cl)cc1Cl
Result string: < 4.00

Query string: Identify measured pIC50 associated with N#CCCCN1CCC(NC(=O)c2ccc(Cl)cc2Cl)CC1
Result string: < 3.00

====

target: GABA transporter 3 (Mus musculus, UniProt P31649); assay: Inhibition of mouse GAT2 expressed in HEK293 cells assessed as reduction in [3H]GABA uptake after 3 mins by scintillation counting method
Sequence (P31649 whole entry): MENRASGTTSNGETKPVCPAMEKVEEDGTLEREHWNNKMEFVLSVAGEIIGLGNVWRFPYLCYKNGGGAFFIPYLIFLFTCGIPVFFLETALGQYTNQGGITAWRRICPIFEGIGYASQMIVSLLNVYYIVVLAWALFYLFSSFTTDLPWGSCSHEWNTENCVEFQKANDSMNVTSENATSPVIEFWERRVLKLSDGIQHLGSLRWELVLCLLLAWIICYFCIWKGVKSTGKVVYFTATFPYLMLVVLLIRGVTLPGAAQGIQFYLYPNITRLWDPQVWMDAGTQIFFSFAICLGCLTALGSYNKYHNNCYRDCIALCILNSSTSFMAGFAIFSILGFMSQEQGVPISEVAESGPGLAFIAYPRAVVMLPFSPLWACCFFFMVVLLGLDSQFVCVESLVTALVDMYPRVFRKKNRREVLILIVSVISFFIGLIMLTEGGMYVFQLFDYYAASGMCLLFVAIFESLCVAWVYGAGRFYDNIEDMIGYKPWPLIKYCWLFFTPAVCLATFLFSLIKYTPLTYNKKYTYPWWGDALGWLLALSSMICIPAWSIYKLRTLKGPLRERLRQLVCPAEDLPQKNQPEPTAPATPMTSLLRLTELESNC
MEASURE_NAME: IC50

Known results for compounds:
Query string: Identify measured IC50 associated with COc1cc(CN2CCC(NC(=O)c3ccc(Cl)cc3Cl)CC2)cc(OC)c1
Result string: 1.2 mM

Query string: Identify measured IC50 associated with COC(=O)c1cccc(CN2CCC(NC(=O)c3ccc(Cl)nc3Cl)CC2)c1
Result string: > 0.3 mM

Query string: Identify measured IC50 associated with O=C(NC1CCN(Cc2cccc(OC(F)(F)F)c2)CC1)c1ccc(Cl)cc1Cl
Result string: > 1 mM

Query string: Identify measured IC50 associated with O=C(NC1CCN(Cc2cccc(O)c2)CC1)c1ccc(Cl)nc1Cl
Result string: > 0.3 mM

More entries:
Query string: Identify measured IC50 associated with O=C(NC1CCN(Cc2cccc(C(F)(F)F)c2)CC1)c1ccc(Cl)cc1Cl
Result string: > 1 mM

====

molecular target: Sodium- and chloride-dependent betaine transporter (Homo sapiens, UniProt P48065, Q378P); test: Inhibition of human BGT1 Q378P mutant expressed in tsA201 cells assessed as reduction in [3H]GABA uptake after 3 mins by scintillation counting method
Sequence (P48065 whole entry Q378P): as the sequence (P48065 whole entry S353A) above, with A353S, Q378P counted along it
MEASURE_NAME: IC50
# answer = value followed by unit

Query string: Identify measured IC50 associated with O=C(NC1CCN(Cc2ccccc2)CC1)c1ccc(Cl)cc1Cl
Result string: 14 µM

====

molecular target: UniProtKB P31649; assay: Inhibition of mouse GAT2 expressed in HEK293 cells assessed as reduction in [3H]GABA uptake after 3 mins by scintillation counting method; format: cell-based
MEASURE_NAME: IC50

Query string: Identify measured IC50 associated with COc1cccc(CN2CCC(NC(=O)c3cccnc3Cl)CC2)c1
Result string: > 1000 µM

Query string: Identify measured IC50 associated with O=C(NC1CCN(Cc2cccc(Cl)c2)CC1)c1ccc(Cl)cc1Cl
Result string: > 300 µM

Query string: Identify measured IC50 associated with O=C(NC1CCN(Cc2ccccc2)CC1)c1ccccc1Cl
Result string: > 400 µM

Query string: Identify measured IC50 associated with O=C(NC1CCN(Cc2ccc(OC(F)(F)F)cc2)CC1)c1ccc(Cl)cc1Cl
Result string: > 1000 µM

Query string: Identify measured IC50 associated with COc1cccc(CN2CCC(NC(=O)c3ccncc3)CC2)c1
Result string: > 1000 µM

More entries:
Query string: Identify measured IC50 associated with O=C(NC1CCN(Cc2ccccc2)CC1)c1cccnc1Cl
Result string: > 1000 µM

Query string: Identify measured IC50 associated with O=C(NC1CCN(Cc2cccc([N+](=O)[O-])c2)CC1)c1ccc(Cl)nc1Cl
Result string: > 300 µM

Query string: Identify measured IC50 associated with O=C(NC1CCN(Cc2c[nH]c3ccccc23)CC1)c1ccc(Cl)nc1Cl
Result string: > 300 µM

Query string: Identify measured IC50 associated with O=C(NC1CCN(Cc2ccccc2)CC1)c1ccncc1
Result string: > 1000 µM

Query string: Identify measured IC50 associated with Cc1cc(C)cc(CN2CCC(NC(=O)c3ccc(Cl)cc3Cl)CC2)c1
Result string: > 300 µM

Query string: Identify measured IC50 associated with Cc1cccc(CN2CCC(NC(=O)c3ccc(Cl)cc3Cl)CC2)c1
Result string: > 300 µM
